# Species on record: Rattus norvegicus
# ASSAY_EXPLANATION: Open TG-GATES - Regimen: Daily Repeat
# Type: toxicity, organism-based, Sprague-Dawley
# Parameters: regimen Daily Repeat, gender Male, age 6 weeks
# MEASUREMENT_PARAMETERS: in vivo, po, 1000 mg/kg, […], tissue Plasma, route gavage, dose level High, time 7 day
Below, each entry is listed alongside its reported RALB.
QUANTITY_NAME: RALB (g/dL)

[
  {
    "CHEMICAL_STRUCTURE": "Cc1nnc2n1-c1ccc(Cl)cc1C(c1ccccc1Cl)=NC2",
    "VALUE_OBSERVED": 2.7
  },
  {
    "CHEMICAL_STRUCTURE": "CN/C(=N/CCSCc1nc[nH]c1C)NC#N",
    "VALUE_OBSERVED": 3.3
  },
  {
    "CHEMICAL_STRUCTURE": "CNC(=C[N+](=O)[O-])NCCSCc1ccc(CN(C)C)o1",
    "VALUE_OBSERVED": 3.3
  },
  {
    "CHEMICAL_STRUCTURE": "CCOc1ccc(NC(C)=O)cc1",
    "VALUE_OBSERVED": 2.7
  },
  {
    "CHEMICAL_STRUCTURE": "O=C(OC[C@H]1O[C@@H](OC(=O)c2cc(O)c(O)c(OC(=O)c3cc(O)c(O)c(O)c3)c2)[C@H](OC(=O)c2cc(O)c(O)c(OC(=O)c3cc(O)c(O)c(O)c3)c2)[C@@H](OC(=O)c2cc(O)c(O)c(OC(=O)c3cc(O)c(O)c(O)c3)c2)[C@@H]1OC(=O)c1cc(O)c(O)c(OC(=O)c2cc(O)c(O)c(O)c2)c1)c1cc(O)c(O)c(OC(=O)c2cc(O)c(O)c(O)c2)c1",
    "VALUE_OBSERVED": 3.7
  },
  {
    "CHEMICAL_STRUCTURE": "COC(=O)C1=C(C)NC(C)=C(C(=O)OC)C1c1ccccc1[N+](=O)[O-]",
    "VALUE_OBSERVED": 2.7
  }
]

* * *

# Organism: Rattus norvegicus
# ASSAY_EXPLANATION: Open TG-GATES - Regimen: Daily Repeat
# Assay type: toxicity, organism-based, Sprague-Dawley
# Design: regimen Daily Repeat, gender Male, age 6 weeks
# MEASUREMENT_PARAMETERS: in vivo, po, 100 mg/kg, 72 h, tissue Plasma, route gavage, dose level Low, time 3 day
QUANTITY_NAME: A/G

[
  {
    "CHEMICAL_STRUCTURE": "CN/C(=N/CCSCc1nc[nH]c1C)NC#N",
    "QUANTITY_NAME": "A/G",
    "VALUE_OBSERVED": 1.5
  },
  {
    "CHEMICAL_STRUCTURE": "CNC(=C[N+](=O)[O-])NCCSCc1ccc(CN(C)C)o1",
    "QUANTITY_NAME": "A/G",
    "VALUE_OBSERVED": 1.6
  },
  {
    "CHEMICAL_STRUCTURE": "Cc1nnc2n1-c1ccc(Cl)cc1C(c1ccccc1Cl)=NC2",
    "QUANTITY_NAME": "A/G",
    "VALUE_OBSERVED": 0.9
  },
  {
    "CHEMICAL_STRUCTURE": "O=C(OC[C@H]1O[C@@H](OC(=O)c2cc(O)c(O)c(OC(=O)c3cc(O)c(O)c(O)c3)c2)[C@H](OC(=O)c2cc(O)c(O)c(OC(=O)c3cc(O)c(O)c(O)c3)c2)[C@@H](OC(=O)c2cc(O)c(O)c(OC(=O)c3cc(O)c(O)c(O)c3)c2)[C@@H]1OC(=O)c1cc(O)c(O)c(OC(=O)c2cc(O)c(O)c(O)c2)c1)c1cc(O)c(O)c(OC(=O)c2cc(O)c(O)c(O)c2)c1",
    "QUANTITY_NAME": "A/G",
    "VALUE_OBSERVED": 2.3
  }
]
